# System tested: KRAS G12V (Homo sapiens, UniProt P01116, G12V)
# Sequence (P01116 1-188 isoform P01116-2 G12V): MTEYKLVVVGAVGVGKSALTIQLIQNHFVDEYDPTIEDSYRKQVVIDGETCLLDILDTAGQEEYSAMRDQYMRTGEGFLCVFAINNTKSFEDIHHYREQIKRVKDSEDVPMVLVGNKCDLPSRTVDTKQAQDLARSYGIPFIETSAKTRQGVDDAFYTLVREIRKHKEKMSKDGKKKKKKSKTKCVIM
# Experimental protocol: GDP-GTP exchange assay (bodipy-GDP/GppNHp, SOS1), KRAS G12V
# Type: biochemical
# Measurement context: KRAS G12V mutant; value for the most potent isomer quoted for certain compounds; read-out: G12V (KRAS G12V exchange assay IC50)
Reported property: IC50

Worked cases, answers included:
Smiles record	System tested	IC50
Cc1nc2c(F)c(-c3cccc(Cl)c3Cl)c(CCC#N)cc2c2c1cc([C@H]1C[C@H](OCc3ccc(Cl)cc3F)CN1C(=O)C1CC1)n2[C@H]1[C@H]2CN[C@@H]1C2	KRAS G12V (Homo sapiens, UniProt P01116, G12V)	≤ 100 nM
Cc1nc(CO[C@H]2C[C@H](c3cc4c(C)nc5c(F)c(-c6cccc(Cl)c6Cl)c(CCC#N)cc5c4n3[C@H]3[C@H]4CN[C@@H]3C4)N(C(=O)C3(C)CC3)C2)cs1	KRAS G12V (Homo sapiens, UniProt P01116, G12V)	≤ 100 nM
CN1CC=C(c2nc3c(F)c(-c4cccc(Cl)c4Cl)c(CCC#N)cc3c3c2cc([C@H]2C[C@H](OCc4c(F)cccc4F)CN2C(=O)C2CC2)n3[C@H]2[C@H]3CN[C@@H]2C3)CC1	KRAS G12V (Homo sapiens, UniProt P01116, G12V)	≤ 100 nM
Cc1nc2c(F)c(-c3cccc(Cl)c3Cl)c(CCC#N)cc2c2c1cc([C@H]1C[C@H](Oc3cnn(CC(F)F)c3C)CN1C(=O)C1CC1)n2[C@H]1[C@H]2CN[C@@H]1C2	KRAS G12V (Homo sapiens, UniProt P01116, G12V)	≤ 100 nM
Cc1nc2c(F)c(-c3cccc(Cl)c3Cl)c(CCC#N)cc2c2c1cc([C@H]1C[C@H](n3cc(C4(C)CCC4)nn3)CN1C(=O)C1CC1)n2[C@H]1[C@H]2CN[C@@H]1C2	KRAS G12V (Homo sapiens, UniProt P01116, G12V)	≤ 100 nM

The record that follows has no IC50 shown yet.
May I ask what IC50 has been recorded for `Cc1cnn([C@H]2C[C@H](c3cc4c(C)nc5c(F)c(-c6cccc(Cl)c6Cl)c(CCC#N)cc5c4n3[C@H]3[C@H]4CN[C@@H]3C4)N(C(=O)C3CC3)C2)c1` ?
≤ 100 nM
